- measured target: T1, cynomolgus monkey GITR (cynomolgus monkey, UniProt Q9Y5U5 26-241 (human entry))
- T1 construct: also called cyno GITR
- T1 chain: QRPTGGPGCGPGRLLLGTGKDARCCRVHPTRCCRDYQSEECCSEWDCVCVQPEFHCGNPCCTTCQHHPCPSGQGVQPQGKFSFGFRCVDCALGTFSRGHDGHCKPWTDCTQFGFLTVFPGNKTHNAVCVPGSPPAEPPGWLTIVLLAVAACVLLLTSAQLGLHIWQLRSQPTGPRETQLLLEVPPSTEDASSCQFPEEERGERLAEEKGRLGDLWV
- protocol description: flow cytometry, cyno T cell binding

binder: 41G5v2 (antibody, human IgG1, kappa, V domains shown, Engineered variant; also called Ab56; SS-13809) VH: QVQLVESGGGVVQPGRSLRLSCAASGFTFSSYGMHWVRQAPGKGLEWVAVIWYPGSNKYYAESVKGRFTISRDNSKNTLYLQMNSLRAEDTAVYYCARGGELGRYYYYGMDVWGQGTTVTVSS VL: DIQMTQSPSSLSASVGDRVTVTCRASQGIRNDLGWYQQKPGKAPKRLIYAASSLQSGVPSRFSGSGSGTEFTLTISSLQPEDFATYYCLQHNNYPWTFGQGTKVDIKR
EC50 / µg/mL: 0.153

binder: 7A10v1 (antibody, human IgG1, kappa, V domains shown, Engineered variant; also called Ab39; SS-13810) VH: QVQLVESGGGVVQPGRSLRLSCAASGFTFSSYGMHWVRQAPGKGLEWMAVIWYVGSNKYYADSVKGRFTISRDNSKNTLYLQMNSLRAEDTAVYYCARGGELGRDYYSGMDVWGQGTTVTVSS VL: DIQMTQSPSSLSASVGDRVTITCRASQGIRNDLGWYQQKPGKAPKRLIYAASSLQSGVPSRFSGSGSGTEFTLTISSLQPEDFATYYCQQHNSYPWTFGQGTKVEIKR
EC50 / µg/mL: 0.173

binder: 9H6v3 (antibody, human IgG1, kappa, V domains shown, Engineered variant; also called Ab46; SS-13806) VH: QVQLVESGGGVVQPGRSLRLSCVASGFTFSSYGMHWIRQAPGKGLEWVAVIWYEGSNKYYAESVKGRFTISRDNSKNTLYLQMNSLRAEDTAVYYCARGGRLGKDYYSGMDVWGQGTTVTVSS VL: DIQMTQSPSSLSASVGDRVTITCRASQGIRNDLGWYQQKPGKAPKRLIYATSSLQSGVPSRFSGSGSGTEFTLTISSLQPEDFATYYCLQHNTYPWTFGQGTKVEIKR
EC50 / µg/mL: 0.184

binder: 33C9v2 (antibody, human IgG1, kappa, V domains shown, Engineered variant; also called Ab51; SS-13808) VH: QVQVVESGGGVVQPGRSLRLSCAASGFTFSSYGMHWVRQAPGKGLEWVSVIWYEGSNKYYAESVKGRFTISRDNSKNTLYLQMNSLRAEDTAVYYCARGGLLGYYYYYGMDVWGQGTTVTVSS VL: DIQMTQSPSSLSASVGDRVTITCRASQGIRNDLGWYQQKPGKAPKRLIYDASSLQSGVPSRFSGSGSGTEFTLTISSLQPEDFATYYCLQHHSYPWTFGQGTKVEIKR
EC50 / µg/mL: 0.301

binder: 5H7v2 (antibody, human IgG1, kappa, V domains shown, Engineered variant; also called Ab26; SS-13807) VH: QVQLQESGPGLVKPSETLSLTCTVSGGSISSGGYFWSWIRQPPGKGLEWIGYIYYSGTTYYNPSLKSRVTISIDTSKNQFSLKLSSVTAADTAVYYCARDLFYYDTSGPRGFDPWGQGTLVTVSS VL: EIVLTQSPGTLSLSPGERATLSCRASQTVSSNYLAWYQQKPGQAPRLLIYGSSTRATGIPDRFSGSGSGTDFTLTISRLEPEDFAVYYCQQYDSSPWTFGQGTKVEIKR
EC50 / µg/mL: 0.619
